# measurement parameters: 323.15 K; Liquid
Give vapor or sublimation pressure for every item shown.
# number only, unit kPa dropped from output

Which vapor or sublimation pressure reading was recorded for the molecule CCC(C)O (centres undefined) ? 10.48

Which vapor or sublimation pressure reading was recorded for the molecule CCCCCC ? 53.91

Which vapor or sublimation pressure reading was recorded for the molecule CCCC(C)O (centres undefined) ? 4.16

Which vapor or sublimation pressure reading was recorded for the molecule CCC(C)(C)O ? 10.41

* * *

# measurement parameters: 313.15 K; Liquid
± gives the expanded uncertainty stated by the source.
parameter measured: vapor or sublimation pressure

Which vapor or sublimation pressure reading was recorded for the compound CCC(C)O (centres undefined) ? 5.83 ± 0.18 kPa

Which vapor or sublimation pressure reading was recorded for the compound CCCCCC ? 37.04 ± 0.55 kPa

Which vapor or sublimation pressure reading was recorded for the compound CCC(C)(C)O ? 5.69 ± 0.24 kPa

Which vapor or sublimation pressure reading was recorded for the compound CCCC(C)O (centres undefined) ? 2.13 ± 0.14 kPa

* * *

Give vapor or sublimation pressure for every item shown.
# measurement parameters: 333.15 K; Liquid
# number only, unit kPa dropped from output

Which vapor or sublimation pressure reading was recorded for the molecule CCCCCC [hexane] ? 76.32

Which vapor or sublimation pressure reading was recorded for the molecule CCC(C)(C)O [2-methylbutan-2-ol] ? 17.87

Which vapor or sublimation pressure reading was recorded for the molecule CCCC(C)O (centres undefined) [pentan-2-ol] ? 7.57

Which vapor or sublimation pressure reading was recorded for the molecule CCC(C)O (centres undefined) [butan-2-ol] ? 18.2
